# Test system: PC-3
# Test details: NCI tumour cell line growth inhibition, 48 h
Calls of active or inactive are those of the source. No stated cut-off is given here; in the data, active = GI50 up to about 1.1 µM and inactive = higher.
Exercise: state measured GI50 for each of the compounds provided.

>  <Smiles data>
O=c1[nH]c2ccc(Cl)cc2o1

>  <Readout value>
> 100 µM (inactive)

$$$$

# return GI50 for each item in the list
1. COc1ccc(Nc2nc3cc(C(F)(F)F)ccc3n3cccc23)cc1OC
2. COP(=O)(OC)OCN(C)CC/C=C(\C)CC/C=C(\C)CCC=C(C)C
3. CCCC(c1cc(C(C)(C)C)c(O)cc1C)c1cc(C(C)(C)C)c(O)cc1C
4. Cc1cc2c(SCc3ccccc3Cl)nc(N)nc2nc1C

["10.6 µM (inactive)", "7.57 µM (inactive)", "3.29 µM (inactive)", "> 100 µM (inactive)"]
